Taken from ChEMBL document CHEMBL3885861.

organism: Rattus norvegicus; assay: Open TG-GATES - Regimen: Single; type: toxicity, organism-based, Sprague-Dawley; parameters: regimen Single, gender Male, age 6 weeks; conditions: in vivo, po, 0 mg/kg, 6 h, tissue Plasma, route gavage, dose level Control
Metric name: ALT

Solved entries (count: 3):
Compound	Metric name	Result
Cc1cnc(NC(=O)C2=C(O)c3ccccc3S(=O)(=O)N2C)s1 [MELOXICAM]	ALT	31.4 IU/L
CS(=O)(=O)Nc1ccc([N+](=O)[O-])cc1Oc1ccccc1 [NIMESULIDE]	ALT	35.8 IU/L
O=C1CN(/N=C/c2ccc(-c3ccc([N+](=O)[O-])cc3)o2)C(O)=N1 [DANTROLENE]	ALT	32.6 IU/L

The following compounds each have a reported value; give each one's ALT.
1. C=CCO [ALLYL ALCOHOL]
2. O=C1NC(=O)C(c2ccccc2)(c2ccccc2)N1 [PHENYTOIN]
3. Cn1cnc([N+](=O)[O-])c1Sc1ncnc2nc[nH]c12 [AZATHIOPRINE]
4. CNCCC(Oc1ccc(C(F)(F)F)cc1)c1ccccc1.Cl (stereo unspecified) [FLUOXETINE HYDROCHLORIDE]
5. S=C=Nc1cccc2ccccc12 [1-NAPHTHYLISOTHIOCYANATE]

-- reply
33.2 IU/L
34.4 IU/L
42.8 IU/L
35 IU/L
35.6 IU/L

Provide ALT for all items below, preserving their order.
1. COc1ccc(O)c(C(C)(C)C)c1.COc1ccc(O)cc1C(C)(C)C [BUTYLATED HYDROXYANISOLE]
2. COc1ccc(Cl)cc1C(=O)NCCc1ccc(S(=O)(=O)NC(=O)NC2CCCCC2)cc1 [GLYBURIDE]
3. Cc1cccc(Nc2cc(Cl)nc(SCC(=O)O)n2)c1C [PIRINIXIC ACID]

-- reply
1. 33.8 IU/L
2. 35 IU/L
3. 37.8 IU/L

* * *

species on record: Rattus norvegicus; test: Open TG-GATES - Regimen: Daily Repeat; assay type: toxicity, organism-based, Sprague-Dawley; design: regimen Daily Repeat, gender Male, age 6 weeks; conditions: in vivo, po, 0 mg/kg, […], tissue Blood, route gavage, dose level Control, time 28 day
Would you mind telling me the reported Bas of each entry?
Answers are plain numbers, in %.

Example entries and their recorded answers appear below.
Compound	U	Bas
COc1ccc(O)c(C(C)(C)C)c1.COc1ccc(O)cc1C(C)(C)C [BUTYLATED HYDROXYANISOLE]	%	0.4
Cc1cnc(NC(=O)C2=C(O)c3ccccc3S(=O)(=O)N2C)s1	%	1
C=CCO	%	0
Cn1cnc([N+](=O)[O-])c1Sc1ncnc2nc[nH]c12	%	0

Need Bas for each of these compounds.
1. CS(=O)(=O)Nc1ccc([N+](=O)[O-])cc1Oc1ccccc1 [NIMESULIDE]
2. COc1ccc(Cl)cc1C(=O)NCCc1ccc(S(=O)(=O)NC(=O)NC2CCCCC2)cc1 [GLYBURIDE]
3. Cn1c(=O)c2c(ncn2C)n(C)c1=O

-- reply
1: 0; 2: 0; 3: 0

Please go through the list and note Bas for each compound.
1. Cc1cccc(Nc2cc(Cl)nc(SCC(=O)O)n2)c1C
2. O=C1NC(=O)C(c2ccccc2)(c2ccccc2)N1
3. O=C1CN(/N=C/c2ccc(-c3ccc([N+](=O)[O-])cc3)o2)C(O)=N1
4. O=P1(N(CCCl)CCCl)NCCCO1 (stereo unspecified) [CYCLOPHOSPHAMIDE ANHYDROUS]

-- reply
1. 0
2. 0
3. 0
4. 0
